# MEASURED ON: Histamine H1 receptor (Homo sapiens, UniProt P35367)
# Sequence (P35367 whole entry): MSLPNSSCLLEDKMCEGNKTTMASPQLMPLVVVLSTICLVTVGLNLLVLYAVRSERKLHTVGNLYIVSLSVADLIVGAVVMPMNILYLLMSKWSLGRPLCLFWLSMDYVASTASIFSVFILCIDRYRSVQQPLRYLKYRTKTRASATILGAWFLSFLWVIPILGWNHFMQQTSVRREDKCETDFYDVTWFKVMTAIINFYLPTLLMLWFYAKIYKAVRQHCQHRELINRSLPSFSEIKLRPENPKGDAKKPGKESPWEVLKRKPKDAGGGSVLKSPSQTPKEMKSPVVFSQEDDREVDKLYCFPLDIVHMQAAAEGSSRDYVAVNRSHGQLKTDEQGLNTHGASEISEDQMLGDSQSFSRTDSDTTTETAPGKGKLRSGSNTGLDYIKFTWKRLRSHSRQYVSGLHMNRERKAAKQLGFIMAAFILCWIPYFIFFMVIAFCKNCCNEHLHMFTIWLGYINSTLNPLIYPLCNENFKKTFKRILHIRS
# ASSAY TEXT: Binding affinity to human H1R expressed in CHO cells using Fluo-4AM as substrate incubated for 1 hrs by calcium mobilization assay based fluorometric analysis
# Format: cell-based
# MEASUREMENT CONTEXT: filed as antagonist
Square brackets hold non-standard residues; d marks the D form. Peptide text beside a SMILES is read from it. * marks the point of attachment. Propanoyl(3-Pip(4-O-2-BnPh)) = O=C(CCN1CCC(Oc2ccccc2Cc2ccccc2)CC1)*; X3 = Cc1cc(C)n2c1C=C1C=CC(/C=C/c3ccc(OCC(=O)*)cc3)=[N+]1[B-]2(F)F; BODIPY(FL) = CC1=CC(C)=[N+]2C1=Cc1ccc(CCC(=O)*)n1[B-]2(F)F; X2 = O=C(CCC1=[N+]2C(=Cc3ccc(-c4cccs4)n3[B-]2(F)F)C=C1)*; βAla = NCCC(=O)O
ENDPOINT LABEL: pKb
Numbers only.

[Q] // query pKb value for entry C[C@H](NC(=O)[C@H](C)NC(=O)[C@H](Cc1ccccc1)NC(=O)CCN1CCC(Oc2ccccc2Cc2ccccc2)CC1)C(=O)NCCC(=O)N[C@@H](CCCCNC(=O)CCC1=[N+]2C(=Cc3ccc(-c4cccs4)n3[B-]2(F)F)C=C1)C(N)=O ({Propanoyl(3-Pip(4-O-2-BnPh))}-FAA[βAla]K(X2)-NH2)
[A] 6.44

[Q] Next compound: `CC(C)[C@H](NC(=O)CCN1CCC(Oc2ccccc2Cc2ccccc2)CC1)C(=O)N[C@@H](CO)C(=O)N[C@@H](CC(N)=O)C(=O)NCCC(=O)N[C@@H](CCCCNC(=O)CCCCC[N+]1=C(/C=C/C=C/C=C2/N(C)c3ccc(S(=O)(=O)[O-])cc3C2(C)C)C(C)(C)c2cc(S(=O)(=O)O)ccc21)C(N)=O`
[A] 5.33

Hey, can you go through the list below and give me pKb for every item?
1. Cc1cc(C)n2c1C=C1C=CC(CCC(=O)NCCCC[C@H](NC(=O)CCNC(=O)[C@H](C)NC(=O)[C@H](C)NC(=O)[C@H](Cc3ccccc3)NC(=O)CCN3CCC(Oc4ccccc4Cc4ccccc4)CC3)C(N)=O)=[N+]1[B-]2(F)F ({Propanoyl(3-Pip(4-O-2-BnPh))}-FAA[βAla]K(BODIPY(FL))-NH2)
2. Cc1cc(C)n2c1C=C1C=CC(/C=C/c3ccc(OCC(=O)NCCCC[C@H](NC(=O)CCNC(=O)[C@H](C)NC(=O)[C@H](C)NC(=O)[C@H](Cc4ccccc4)NC(=O)CCN4CCC(Oc5ccccc5Cc5ccccc5)CC4)C(N)=O)cc3)=[N+]1[B-]2(F)F ({Propanoyl(3-Pip(4-O-2-BnPh))}-FAA[βAla]K(X3)-NH2)
3. Cc1cc(C)n2c1C=C1C=CC(CCC(=O)NCCCC[C@H](NC(=O)CCNC(=O)[C@H](CC(N)=O)NC(=O)[C@H](CO)NC(=O)[C@@H](NC(=O)CCN3CCC(Oc4ccccc4Cc4ccccc4)CC3)C(C)C)C(N)=O)=[N+]1[B-]2(F)F ({Propanoyl(3-Pip(4-O-2-BnPh))}-VSN[βAla]K(BODIPY(FL))-NH2)
4. Cc1cc(C)n2c1C=C1C=CC(/C=C/c3ccc(OCC(=O)NCCCC[C@H](NC(=O)CCNC(=O)[C@H](CC(N)=O)NC(=O)[C@H](CO)NC(=O)[C@@H](NC(=O)CCN4CCC(Oc5ccccc5Cc5ccccc5)CC4)C(C)C)C(N)=O)cc3)=[N+]1[B-]2(F)F ({Propanoyl(3-Pip(4-O-2-BnPh))}-VSN[βAla]K(X3)-NH2)

[A]
[7.46, 6.99, 6.95, 6.96]
